# subject_of_test: Aldo-keto reductase family 1 member B1 (Rattus norvegicus, UniProt P07943)
# run_description: Inhibition of rat lens aldose reductase
Please go through the items and note down their pIC50.
pIC50 here: minus log base 10 of the concentration, concentration in moles per litre.

Prompt line: Quick one: pIC50 for COc1c(-c2ccc(O)c(O)c2)oc2c(OC)c(O)cc(OC)c2c1=O ?
Response line: 6.55

Prompt line: Quick one: pIC50 for O=c1cc(-c2ccc(O)c(O)c2)oc2cc(O)c(O)c(O)c12 [6-HYDROXYLUTEOLIN] ?
Response line: 6.69

Prompt line: Quick one: pIC50 for COc1cc(-c2cc(=O)c3c(O)c(O)c(O)c(OC)c3o2)ccc1O ?
Response line: 5.92

Prompt line: Quick one: pIC50 for O=c1cc(-c2ccc(O)cc2)oc2ccc(O)cc12 ?
Response line: 5.28

Prompt line: Quick one: pIC50 for COc1cc(-c2cc(=O)c3c(O)c(O)c(OC)c(OC)c3o2)ccc1O ?
Response line: 3.96

----------
property_name: IC50 (µM)
Write down the numeric answer in µM and omit the unit.

Prompt line: Give Aldo-keto reductase family 1 member B1 (Rattus norvegicus, UniProt P07943) IC50 for COc1c(OC)c(OC)c2c(=O)cc(-c3ccc(O)c(O)c3)oc2c1OC
Response line: 0.0324

Prompt line: Give Aldo-keto reductase family 1 member B1 (Rattus norvegicus, UniProt P07943) IC50 for COc1cc2oc(-c3ccc(O)c(O)c3)c(OC)c(=O)c2c(O)c1OC [CHRYSOSPLENOL D]
Response line: 0.348

Prompt line: Give Aldo-keto reductase family 1 member B1 (Rattus norvegicus, UniProt P07943) IC50 for COc1c(O)c(OC)c2c(=O)cc(-c3ccccc3)oc2c1OC
Response line: 288

Prompt line: Give Aldo-keto reductase family 1 member B1 (Rattus norvegicus, UniProt P07943) IC50 for COc1cc(O)c2c(=O)cc(-c3ccc(O)c(O)c3)oc2c1O
Response line: 0.229

Prompt line: Give Aldo-keto reductase family 1 member B1 (Rattus norvegicus, UniProt P07943) IC50 for COc1cc(-c2cc(=O)c3c(O)c(OC)c(O)c(OC)c3o2)ccc1OC1O[C@H](CO)[C@@H](O)[C@H](O)[C@H]1O (stereo partly specified)
Response line: 18.2

Prompt line: Give Aldo-keto reductase family 1 member B1 (Rattus norvegicus, UniProt P07943) IC50 for COc1cc(-c2cc(=O)c3c(OC)c(O)c(OC)c(OC)c3o2)ccc1O
Response line: 6.31

----------
This document collects pIC50 values reported for Aldo-keto reductase family 1 member B1 (Rattus norvegicus).
pIC50 here: minus log base 10 of the concentration, concentration in moles per litre.

Prompt line: Quick one: pIC50 for COc1c(O)cc2oc(-c3ccc(O)c(O)c3)c(OC)c(=O)c2c1O ?
Response line: 7.55

Prompt line: Quick one: pIC50 for COc1cc(-c2cc(=O)c3c(O)c(OC)c(OC)c(OC)c3o2)ccc1O ?
Response line: 4.34

Prompt line: Quick one: pIC50 for COc1cc(O)c2c(=O)cc(-c3cc(OC)c(O)cc3OC)oc2c1 ?
Response line: 3.00

Prompt line: Quick one: pIC50 for COc1cc(-c2cc(=O)c3c(O)c(OC)c(OC4O[C@H](CO)[C@@H](O)[C@H](O)[C@H]4O)c(OC)c3o2)ccc1O (stereo not given in full) ?
Response line: 4.68

Prompt line: Quick one: pIC50 for COc1ccc(-c2cc(=O)c3c(O)c(OC)c(O)c(OC)c3o2)cc1 ?
Response line: 5.14

Prompt line: Quick one: pIC50 for COc1cc2oc(-c3ccc(O)c(O)c3)c(C(C)=O)c(=O)c2c(OC)c1OC ?
Response line: 5.05

Prompt line: Quick one: pIC50 for COc1cc(O)c2c(=O)cc(-c3ccc(O)c(O)c3)oc2c1OC ?
Response line: 7.11

Prompt line: Quick one: pIC50 for COc1cc2oc(-c3ccc(O)c(O)c3)cc(=O)c2c(O)c1O ?
Response line: 6.52

Prompt line: Quick one: pIC50 for COc1cc2oc(-c3ccc(O)c(O)c3)c(OC)c(=O)c2c(O)c1O ?
Response line: 6.09

Prompt line: Quick one: pIC50 for COc1cc2oc(-c3ccc(O)c(O)c3)cc(=O)c2c(O)c1OC ?
Response line: 6.77

Numbers sourced from ChEMBL document CHEMBL1155792.
